# test_target: T1, human MSLN-FL-his protein (human, UniProt Q13421 296-580)
# T1 construct: made in HEK293E cells, purified on nickel column; also called hMSLN-FL-his; human MSLN full-length protein; not shown: His tag
# T1 sequence (Q13421 other isoform, or with tags, fused parts or gaps): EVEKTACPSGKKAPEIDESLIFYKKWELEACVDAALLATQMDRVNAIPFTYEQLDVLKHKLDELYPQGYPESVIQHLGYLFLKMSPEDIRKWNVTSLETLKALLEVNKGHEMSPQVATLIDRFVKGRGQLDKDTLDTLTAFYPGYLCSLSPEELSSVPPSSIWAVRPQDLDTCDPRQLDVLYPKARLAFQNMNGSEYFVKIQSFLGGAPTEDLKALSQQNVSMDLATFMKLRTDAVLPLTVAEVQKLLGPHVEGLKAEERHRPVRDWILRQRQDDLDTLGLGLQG
# experiment: competitive ELISA; row Tab142; also: test concentration or dose not given here
Measured competition rate accompanies every entry in the list below.
Just the number please, in %, no unit attached.

Solved entries:
{"columns": ["binder", "competition rate / %"],
 "data": [
  ["S009-F2-56.12 (antibody, human IgG1, kappa, V domains shown, human-murine chimeric antibody, human IgG1/kappa constant regions) VH: DVQLQESGPGMVKPSQSLSLTCTVTGYSITSGYDWHWIRHFPGNKLEWMGYISYSGSTNYNPSLKSRISITHDTSKNHFFLKLKSVTTEDTATYYCARGTGPDYWGQGTTLTVSS VL: DIVMTQSQKFMSTSVGDRVSITCKASQNVRTAVAWYQQKPGQSPKALIHLPSNRHTGVPDRFTGSGSGTDFTLTISNVQSEDLADYFCLQHWNYPLTFGGGTKLEIKR", 3],
  ["S009-F6-76.1 (antibody, human IgG1, kappa, V domains shown, human-murine chimeric antibody, human IgG1/kappa constant regions) VH: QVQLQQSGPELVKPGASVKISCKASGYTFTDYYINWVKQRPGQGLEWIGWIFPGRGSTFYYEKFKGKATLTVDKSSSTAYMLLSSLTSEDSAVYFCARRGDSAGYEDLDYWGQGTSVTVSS VL: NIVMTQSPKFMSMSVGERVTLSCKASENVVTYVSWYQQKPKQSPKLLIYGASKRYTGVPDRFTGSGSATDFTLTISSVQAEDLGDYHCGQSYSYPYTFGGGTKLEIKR", 39],
  ["S009-F4-94.15 (antibody, human IgG1, kappa, V domains shown, human-murine chimeric antibody, human IgG1/kappa constant regions) VH: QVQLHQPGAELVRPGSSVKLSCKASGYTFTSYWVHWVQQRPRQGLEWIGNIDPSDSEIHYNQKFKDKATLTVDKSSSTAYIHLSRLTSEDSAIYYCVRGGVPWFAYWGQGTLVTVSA VL: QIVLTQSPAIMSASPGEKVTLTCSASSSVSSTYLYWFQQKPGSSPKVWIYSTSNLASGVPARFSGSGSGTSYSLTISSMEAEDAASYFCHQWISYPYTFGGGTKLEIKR", 26]
]}

Now for the binder whose competition rate we want.
// competition rate value for S009-F6-62.5 (antibody, human IgG1, kappa, V domains shown, human-murine chimeric antibody, human IgG1/kappa constant regions) VH: QVQLQQPGTELVKPGASVKLSCRASGYTFTAYWMHWVKQRPGQGLEWIGNINPSNGGTDFNEKFKSKATLTVDKSSSTAYMQLSSLTSEDSAVYYCARGRGYFDVWGTGTTVTVSS VL: DILLTQSPAILSVSPGERVSFSCRASKNIGTSIHWYQQRTNGSPRLLIKYASESISGIPSRFSGSGSGTDFTLNINSVESEDIADYYCQQSNSWPTLTFGAGTKLELKR : 28

This collection of values is drawn from patent US20250250357A1.
